# Tested on: LOX IMVI
# assay_details: NCI human tumor cell panel: LOX IMVI (Melanoma)
# Assay type: cell-based
# run_parameters: read-out: Log10 GI50 (converted)
experimental_readout: GI50

Consider the following illustrative entries.
OCc1ccc(-c2ccc(-c3ccc(CO)[se]3)s2)[se]1
> 100 µM
O=Cc1ccc(-c2ccc(-c3ccc(C=O)[se]3)s2)s1
16.6 µM
OCc1ccc(-c2ccc(-c3ccc(CO)[se]3)s2)s1
13.5 µM
OCc1ccc(-c2ccc(-c3ccc[se]3)[se]2)[se]1
3.63 µM
OCc1ccc(-c2ccc(-c3ccc(CO)s3)[se]2)s1
> 100 µM
OCc1ccc(-c2ccc(-c3ccc[se]3)s2)[se]1
15.1 µM

Kindly consider the entry below.
### Prompt Need GI50 of OCc1ccc(-c2ccc(-c3ccc(CO)[se]3)[se]2)[se]1 , thanks.
### Response 3.02 µM

====

# System: HOP-92
# assay_details: NCI human tumor cell panel: HOP-92 (Non-Small Cell Lung Cancer)
# run_parameters: HOP-92, read-out: Log10 TGI
Listing: IC (TGI) of selected compounds
Respond numerically; units are µM and should not be typed.

OCc1ccc(-c2ccc(-c3cccs3)[se]2)s1 [NSC 675344]
89.1

Kindly consider the entry below.
### Prompt Need IC (TGI) of O=Cc1ccc(-c2ccc(-c3ccc(C=O)s3)[se]2)s1 [NSC 675345] , thanks.
### Response 55

====

Listing: GI50 of selected molecules
# Tested on: BT-549
# assay_details: NCI human tumor cell panel: BT-549 (Breast Cancer)
# Format: cell-based
# run_parameters: BT-549, read-out: Log10 GI50 (converted)
Respond numerically; units are µM and should not be typed.

Consider the following illustrative entries.
OCc1ccc(-c2ccc(-c3ccc(CO)[se]3)[se]2)[se]1
3.39
OCc1ccc(-c2ccc(-c3ccc[se]3)s2)[se]1
17
O=Cc1ccc(-c2ccc(-c3ccc(C=O)[se]3)s2)s1
56.2

Kindly consider the entry below.
### Prompt Need GI50 of OCc1ccc(-c2ccc(-c3ccc(CO)[se]3)s2)[se]1 , thanks.
### Response 0.195

====

# Test system: HCT-116
# assay_details: NCI human tumor cell panel: HCT-116 (Colon Cancer)
# Format: cell-based
# run_parameters: HCT-116, read-out: Log10 TGI (converted)
Listing: IC (TGI) of selected molecules

Consider the following illustrative entries.
OCc1ccc(-c2ccc(-c3ccc(CO)s3)[se]2)s1
> 100 µM
OCc1ccc(-c2ccc(-c3ccc[se]3)[se]2)[se]1
10.7 µM
OCc1ccc(-c2ccc(-c3ccc[se]3)s2)[se]1
> 100 µM

### Prompt Need IC (TGI) of OCc1ccc(-c2ccc(-c3ccc(CO)[se]3)s2)[se]1 , thanks.
### Response > 100 µM

### Prompt Need IC (TGI) of OCc1ccc(-c2ccc(-c3ccc(CO)[se]3)[se]2)[se]1 , thanks.
### Response 11.2 µM

### Prompt Need IC (TGI) of O=Cc1ccc(-c2ccc(-c3ccc(C=O)[se]3)s2)s1 , thanks.
### Response > 100 µM

### Prompt Need IC (TGI) of OCc1ccc(-c2ccc(-c3ccc(CO)[se]3)s2)s1 , thanks.
### Response 17.4 µM

====

# Test system: IGROV1
# assay_details: NCI human tumor cell panel: IGROV1 (Ovarian Cancer)
# Assay type: cell-based
# run_parameters: IGROV-1, IGROV1, read-out: Log10 TGI (converted)
So basically, if IC (TGI) comes in under 2000 nM it's 1 (yes), and if it's 2000 nM or more it's 0 (no).

OCc1ccc(-c2ccc(-c3ccc(CO)[se]3)s2)s1 [compound 688830]
1 (yes)
OCc1ccc(-c2ccc(-c3ccc(CO)[se]3)[se]2)[se]1 [compound 675247]
0 (no)
OCc1ccc(-c2ccc(-c3ccc[se]3)[se]2)[se]1 [compound 675246]
0 (no)
OCc1ccc(-c2ccc(-c3ccc[se]3)s2)[se]1 [compound 676631]
1 (yes)
O=Cc1ccc(-c2ccc(-c3ccc(C=O)[se]3)s2)s1 [compound 688829]
0 (no)

### Prompt For this compound, is IC (TGI) lower than 2000 nM? OCc1ccc(-c2ccc(-c3ccc(CO)[se]3)s2)[se]1 [compound 676632]
### Response 1 (yes)

====

# System: EKVX
# assay_details: NCI human tumor cell panel: EKVX (Non-Small Cell Lung Cancer)
# Assay type: cell-based
# run_parameters: Non-Small Cell Lung Cancer, read-out: Log10 TGI (converted)
Listing: IC (TGI) of selected molecules

Consider the following illustrative entries.
O=Cc1ccc(-c2ccc(-c3cccs3)[se]2)s1
> 100 µM
O=Cc1ccc(-c2ccc(-c3ccc(C=O)[se]3)[se]2)[se]1
> 100 µM
OCc1ccc(-c2ccc(-c3cccs3)[se]2)s1
> 100 µM
O=Cc1ccc(-c2ccc(-c3ccc(C=O)s3)[se]2)s1
> 100 µM

Kindly consider the entry below.
### Prompt Need IC (TGI) of O=Cc1ccc(-c2ccc(-c3ccc[se]3)[se]2)[se]1 , thanks.
### Response 64.6 µM

====

# Tested on: SW-620
# assay_details: NCI human tumor cell panel: SW-620 (Colon Cancer)
# Type: cell-based
# run_parameters: SW-620, read-out: Log10 TGI (converted)
Listing: IC (TGI) of selected molecules
Respond numerically; units are µM and should not be typed.

OCc1ccc(-c2ccc(-c3ccc(CO)[se]3)[se]2)[se]1 [compound 675247]
3.63
OCc1ccc(-c2ccc(-c3ccc[se]3)[se]2)[se]1 [compound 675246]
10.2

### Prompt Need IC (TGI) of OCc1ccc(-c2ccc(-c3ccc(CO)[se]3)s2)s1 [compound 688830] , thanks.
### Response 25.1

====

# Test system: A549/ATCC
# assay_details: NCI human tumor cell panel: A549/ATCC (Non-Small Cell Lung Cancer)
# Format: cell-based
# run_parameters: Non-Small Cell Lung Cancer, read-out: Log10 GI50 (converted)
Listing: GI50 of selected compounds
Respond numerically; units are µM and should not be typed.

O=Cc1ccc(-c2ccc(-c3ccc(C=O)[se]3)s2)[se]1
87.1
O=Cc1ccc(-c2ccc(-c3ccc[se]3)[se]2)[se]1
13.5
OCc1ccc(-c2ccc(-c3cccs3)[se]2)s1
45.7

Kindly consider the entry below.
### Prompt Need GI50 of O=Cc1ccc(-c2ccc(-c3cccs3)[se]2)s1 , thanks.
### Response 55

====

Listing: IC (TGI) of selected compounds
# Test system: MDA-N
# assay_details: NCI human tumor cell panel: MDA-N (Breast Cancer)
# Type: cell-based
# run_parameters: read-out: Log10 TGI (converted)
Respond numerically; units are µM and should not be typed.

Consider the following illustrative entries.
OCc1ccc(-c2ccc(-c3ccc[se]3)s2)[se]1
43.7
OCc1ccc(-c2ccc(-c3ccc[se]3)[se]2)[se]1
56.2

Kindly consider the entry below.
### Prompt Need IC (TGI) of OCc1ccc(-c2ccc(-c3ccc(CO)[se]3)[se]2)[se]1 , thanks.
### Response 25.1

====

Listing: IC (TGI) of selected compounds
# Tested on: HT29
# assay_details: NCI human tumor cell panel: HT29 (Colon Cancer)
# Type: cell-based
# run_parameters: HT-29, HT29, read-out: Log10 TGI (converted)
Respond numerically; units are µM and should not be typed.

Consider the following illustrative entries.
OCc1ccc(-c2ccc(-c3ccc(CO)[se]3)s2)s1
43.7
OCc1ccc(-c2ccc(-c3ccc(CO)[se]3)[se]2)[se]1
7.59

Kindly consider the entry below.
### Prompt Need IC (TGI) of OCc1ccc(-c2ccc(-c3ccc[se]3)[se]2)[se]1 , thanks.
### Response 10.7

====

Listing: log10(GI50) of selected molecules
# Test system: T-47D
# assay_details: NCI human tumor cell panel: T-47D (Breast Cancer)
# Format: cell-based
# run_parameters: T47D, Breast Cancer, read-out: Log10 GI50 (converted)
In our notation, the value equals log10 of GI50 in µM.

O=Cc1ccc(-c2ccc(-c3cccs3)[se]2)s1 [NSC 675346]
1.26

### Prompt Need log10(GI50) of O=Cc1ccc(-c2ccc(-c3ccc(C=O)s3)[se]2)s1 [NSC 675345] , thanks.
### Response 1.90

### Prompt Need log10(GI50) of O=Cc1ccc(-c2ccc(-c3ccc[se]3)[se]2)[se]1 [NSC 675244] , thanks.
### Response 1.05

### Prompt Need log10(GI50) of OCc1ccc(-c2ccc(-c3cccs3)[se]2)s1 [NSC 675344] , thanks.
### Response -0.21

### Prompt Need log10(GI50) of O=Cc1ccc(-c2ccc(-c3ccc(C=O)[se]3)[se]2)[se]1 [NSC 675245] , thanks.
### Response 1.20
